# experimental target: Corticotropin-releasing factor receptor 2/Corticotropin-releasing factor-binding protein (Homo sapiens, UniProt P24387+Q13324)
# Sequence (Q13324 whole entry): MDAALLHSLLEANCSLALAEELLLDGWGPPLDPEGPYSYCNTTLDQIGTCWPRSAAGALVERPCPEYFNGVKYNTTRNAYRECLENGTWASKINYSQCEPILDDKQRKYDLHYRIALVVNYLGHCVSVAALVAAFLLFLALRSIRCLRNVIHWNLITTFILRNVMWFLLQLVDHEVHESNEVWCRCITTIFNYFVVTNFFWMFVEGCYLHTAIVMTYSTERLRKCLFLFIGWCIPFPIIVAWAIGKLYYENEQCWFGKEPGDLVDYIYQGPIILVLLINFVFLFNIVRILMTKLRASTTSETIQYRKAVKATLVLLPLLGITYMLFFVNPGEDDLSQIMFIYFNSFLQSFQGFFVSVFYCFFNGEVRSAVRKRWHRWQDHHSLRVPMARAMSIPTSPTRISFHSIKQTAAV
# Sequence (P24387 whole entry): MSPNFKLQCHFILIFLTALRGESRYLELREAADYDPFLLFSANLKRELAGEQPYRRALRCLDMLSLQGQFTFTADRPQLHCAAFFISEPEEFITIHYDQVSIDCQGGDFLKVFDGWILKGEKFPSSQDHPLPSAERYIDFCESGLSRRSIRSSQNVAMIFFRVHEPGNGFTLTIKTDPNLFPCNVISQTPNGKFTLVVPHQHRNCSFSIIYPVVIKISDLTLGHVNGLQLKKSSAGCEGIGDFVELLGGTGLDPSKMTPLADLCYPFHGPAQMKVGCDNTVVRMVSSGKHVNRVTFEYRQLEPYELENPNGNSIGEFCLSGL
# assay: activators of CRF receptor 2 with binding protein – uHTS hits, confirmation (AID 602473)
# Assay type: functional
# condition parameters: read-out: EC50_Mean
Activity calls are given as the source filed them. Cut-off read from the data, not from the text of the source: actives have a measured EC50 and inactives only a lower limit.
Labels: active, inactive

compound="COc1ccccc1C(=O)NC(CCSC)C(=O)NC1CCCCCC1 (configuration not stated)" assigned_label=inactive
compound=COc1ccccc1CCNC(=O)CCn1nc(C)c2c(C)n(-c3ccccc3)nc2c1=O assigned_label=inactive
compound=CSc1nc(C)c(C(=O)C[n+]2ccccc2C)cc1C#N assigned_label=inactive
compound=C#CCNC(=O)C1=C[C@H](c2ccc3c(c2)OCO3)[C@@H](CCCO)[C@H](OCC)O1 assigned_label=inactive
compound=COc1ccc(NS(=O)(=O)c2ccc(O)c(NC(=O)c3cc4c(C)nn(-c5ccc(F)cc5)c4s3)c2)cc1 assigned_label=inactive
compound=CCOc1ccc(C(=O)NNC(=O)CCNC(=O)c2ccco2)cc1OC assigned_label=inactive
compound=Cc1cc([N+](=O)[O-])ccc1NC1CCCC1 assigned_label=inactive
compound="Cc1ccc2nc(N3C(=O)C(O)=C(C(=O)c4ccc(C)o4)C3c3cccc(O)c3)sc2c1 (configuration not stated)" assigned_label=inactive
compound=COc1ccc(N2C(=O)/C(=C\NNS(=O)(=O)c3cc(C)ccc3C)c3ccccc3C2=O)cc1OC assigned_label=active
compound=Cc1cccc(S(=O)(=O)c2c(N)n(Cc3ccco3)c3nc4ccccc4nc23)c1 assigned_label=inactive
compound=Nc1nnc(SCc2cc3c(cc2Cl)OCO3)s1 assigned_label=inactive
compound=CN1/C(=C\C=C(/C#N)C(=O)Nc2ccc(Cl)cc2)C(C)(C)c2ccccc21 assigned_label=active
compound=Cn1c(SCC(=O)c2ccc3c(c2)OCCO3)nnc1C(F)(F)F assigned_label=inactive
compound=CCOC(=O)Cc1csc(NC(=S)NC(=O)c2ccc([N+](=O)[O-])cc2)n1 assigned_label=active
compound=Cc1cc2c(NS(=O)(=O)c3ccc(F)cc3)cccc2nn1 assigned_label=inactive
compound=O=S(=O)([N-]c1nc2ccccc2nc1-[n+]1ccc(-c2ccncc2)cc1)c1ccccc1 assigned_label=inactive
compound=CCCn1nc(-c2ccccc2)c2nc3ccccc3nc21 assigned_label=active
compound=Cc1ccc(C(=O)NC(=S)NNC(=O)COc2ccccc2C)cc1 assigned_label=active
compound=CC(=O)c1ccc(N2CCN(C(=O)CCS(=O)(=O)c3ccc4c(c3)CCN4C(C)=O)CC2)cc1 assigned_label=inactive
compound=O=C(Nc1ccccc1)c1nc[nH]c1C(=O)NCCN(CCNC(=O)c1[nH]cnc1C(=O)Nc1ccccc1)CCNC(=O)c1[nH]cnc1C(=O)Nc1ccccc1 assigned_label=inactive
compound=O=c1ccc2cc(S(=O)(=O)NCc3ccccc3)ccc2[nH]1 assigned_label=inactive
compound=Cc1cc(-c2ccc(N3CCOCC3)cc2)nc2ccccc12 assigned_label=inactive
